Biological target: T1, hu-CD74 antigen (R&D SYSTEMS catalog #3590-CD-050) (human, UniProt P04233-2 73-232, limits assumed)
T1 construct: Bought antigen; also called rhCD74; human CD74
T1 sequence (looked up): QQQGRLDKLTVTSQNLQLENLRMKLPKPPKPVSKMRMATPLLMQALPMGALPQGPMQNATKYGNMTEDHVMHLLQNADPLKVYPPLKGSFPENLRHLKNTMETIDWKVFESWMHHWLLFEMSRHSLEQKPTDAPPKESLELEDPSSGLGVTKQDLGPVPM
Assay: SPR (Biacore T200), IgG captured on anti-human Fc, rhCD74 analyte
REPORTED ENDPOINT: kon (M⁻¹ s⁻¹)
Give bare numbers, in M⁻¹ s⁻¹.

BINDER: HC 1251_A06 (g)/LC 1337_A09 (wt) (antibody, human IgG1, kappa, V domains shown, IgG format) VH: QVQLVESGGGVVQPGRSLRLSCAASGFDFSSYGMHWVRQAPGKGLEWVAVIWDDGSDRYYADSVKGRFTISRDNSKNTLYLQMNSLRAEDTAVYYCARGGTRVLGAIHGTDVWGQGTTVTVSS VL: DIQMTQSPSSLSASVGDRVTITCRASQGIGSWLAWYQQKPEKAPKSLIYAADRLQSGVPSRFSGSGSGTDFTLTISSLQPEDFATYYCQQYHTYPLTFGGGTKVEIKR
kon (M⁻¹ s⁻¹): 457000

Working through the 8 binders below one at a time, give kon for each.
1. HC 1251_B08 (wt)/LC 1337_A10 (wt) (antibody, human IgG1, kappa, V domains shown, IgG format) VH: QVQLVESGGGVVQPGRSLRLSCAASGFNFSDYGMHWVRQAPDKGLEWVAVIWYDGSISYYADSVKGRFTISRDNSKNTLYLQMNSLRAEDTAVYYCARGGTVEHGAVYGTDVWGQGATVTVSS VL: DIQMTQSPSSLSASVGDRVTITCRASQGISSWVAWYQQKPEKAPKSLIYGSSRLQSGVPSRFSGSGSGTDFTLTISSLQPEDFATYYCQQYNTYPLTFGGGTKVEIKR
2. HC 1251_A06 (g)/LC 1275_C10 (wt) (antibody, human IgG1, kappa, V domains shown, IgG format) VH: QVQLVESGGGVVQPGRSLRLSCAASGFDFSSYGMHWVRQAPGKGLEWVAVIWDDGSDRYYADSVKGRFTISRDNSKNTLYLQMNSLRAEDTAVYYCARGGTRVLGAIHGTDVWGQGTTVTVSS VL: DIQMTQSPSSLSASVGDRVTITCRASQGVSSWLAWYQQKPEKAPKSLIYSARYLQSGVPSRFSGSGSGTDFTLTISSLQPEDFATYYCQQYNLYPLTFGGGTKVEIKR
3. HC 1251_A06 (wt)/LC 1337_A09 (wt) (antibody, human IgG1, kappa, V domains shown, IgG format) VH: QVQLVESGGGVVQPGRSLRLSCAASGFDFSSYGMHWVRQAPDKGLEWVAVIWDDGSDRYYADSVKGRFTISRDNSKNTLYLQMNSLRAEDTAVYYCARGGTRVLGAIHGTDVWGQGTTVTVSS VL: DIQMTQSPSSLSASVGDRVTITCRASQGIGSWLAWYQQKPEKAPKSLIYAADRLQSGVPSRFSGSGSGTDFTLTISSLQPEDFATYYCQQYHTYPLTFGGGTKVEIKR
4. HC 1251_A06 (g)/LC 1337_A10 (g) (antibody, human IgG1, kappa, V domains shown, IgG format) VH: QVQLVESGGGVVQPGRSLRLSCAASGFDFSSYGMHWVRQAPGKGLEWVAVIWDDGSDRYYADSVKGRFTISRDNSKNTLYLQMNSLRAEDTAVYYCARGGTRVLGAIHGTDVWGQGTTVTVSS VL: DIQMTQSPSSVSASVGDRVTITCRASQGISSWVAWYQQKPGKAPKLLIYGSSRLQSGVPSRFSGSGSGTDFTLTISSLQPEDFATYYCQQYNTYPLTFGGGTKVEIKR
5. HC 1251_A06 (wt)/LC 1337_A10 (g) (antibody, human IgG1, kappa, V domains shown, IgG format) VH: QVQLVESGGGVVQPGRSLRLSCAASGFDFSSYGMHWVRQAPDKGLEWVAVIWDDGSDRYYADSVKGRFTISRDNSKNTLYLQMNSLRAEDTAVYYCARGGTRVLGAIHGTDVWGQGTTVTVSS VL: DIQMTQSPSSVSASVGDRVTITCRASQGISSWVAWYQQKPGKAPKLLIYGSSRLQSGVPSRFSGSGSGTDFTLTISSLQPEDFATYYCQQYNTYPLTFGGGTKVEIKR
6. HC 1251_A06 (wt)/LC 1337_A07 (wt) (antibody, human IgG1, kappa, V domains shown, IgG format) VH: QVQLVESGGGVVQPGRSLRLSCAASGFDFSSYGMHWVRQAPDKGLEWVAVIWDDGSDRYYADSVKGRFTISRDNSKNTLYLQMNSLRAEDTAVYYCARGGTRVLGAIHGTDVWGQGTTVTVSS VL: DIQMTQSPSSLSASVGDRVTITCRASQGISSWVAWYQQKPEKAPKSLIYGASRLQSGVPSRFSGSGSGTDFTLTISSLQPEDFATYYCQQYHTYPLTFGGGTKVEIKR
7. HC 1251_A06 (g)/LC 1337_A07 (wt) (antibody, human IgG1, kappa, V domains shown, IgG format) VH: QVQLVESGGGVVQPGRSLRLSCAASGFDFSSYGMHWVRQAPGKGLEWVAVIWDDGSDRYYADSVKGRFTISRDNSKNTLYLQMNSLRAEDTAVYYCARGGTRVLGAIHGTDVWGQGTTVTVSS VL: DIQMTQSPSSLSASVGDRVTITCRASQGISSWVAWYQQKPEKAPKSLIYGASRLQSGVPSRFSGSGSGTDFTLTISSLQPEDFATYYCQQYHTYPLTFGGGTKVEIKR
8. HC 1251_A06 (g)/LC 1337_A09 (g) (antibody, human IgG1, kappa, V domains shown, IgG format) VH: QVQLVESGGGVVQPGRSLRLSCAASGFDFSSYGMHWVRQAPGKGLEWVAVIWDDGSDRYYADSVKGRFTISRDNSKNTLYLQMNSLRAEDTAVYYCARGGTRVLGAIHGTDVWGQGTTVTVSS VL: DIQMTQSPSSVSASVGDRVTITCRASQGIGSWLAWYQQKPGKAPKLLIYAADRLQSGVPSRFSGSGSGTDFTLTISSLQPEDFATYYCQQYHTYPLTFGGGTKVEIKR

[491000, 520000, 588000, 380000, 571000, 598000, 568000, 552000]

// HC 1251_B08 (g)/LC 1337_A09 (g) (antibody, human IgG1, kappa, V domains shown, IgG format) VH: QVQLVESGGGVVQPGRSLRLSCAASGFNFSDYGMHWVRQAPGKGLEWVAVIWYDGSISYYADSVKGRFTISRDNSKNTLYLQMNSLRAEDTAVYYCARGGTVEHGAVYGTDVWGQGTTVTVSS VL: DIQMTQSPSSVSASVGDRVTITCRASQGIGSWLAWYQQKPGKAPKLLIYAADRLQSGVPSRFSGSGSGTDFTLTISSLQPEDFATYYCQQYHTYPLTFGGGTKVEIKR : kon value = 309000
